molecular target: NACHT, LRR and PYD domains-containing protein 3 (Mus musculus, UniProt Q8R4B8); assay: Inhibition of NLRP3 inflammasome in LPS-primed mouse J774.A1 cells assessed as reduction in IL-1beta secretion preincubated for 30 mins followed by ATP addition and measured after 30 mins by ELISA; type: cell-based
Sequence (Q8R4B8 whole entry, the tested form may be a part): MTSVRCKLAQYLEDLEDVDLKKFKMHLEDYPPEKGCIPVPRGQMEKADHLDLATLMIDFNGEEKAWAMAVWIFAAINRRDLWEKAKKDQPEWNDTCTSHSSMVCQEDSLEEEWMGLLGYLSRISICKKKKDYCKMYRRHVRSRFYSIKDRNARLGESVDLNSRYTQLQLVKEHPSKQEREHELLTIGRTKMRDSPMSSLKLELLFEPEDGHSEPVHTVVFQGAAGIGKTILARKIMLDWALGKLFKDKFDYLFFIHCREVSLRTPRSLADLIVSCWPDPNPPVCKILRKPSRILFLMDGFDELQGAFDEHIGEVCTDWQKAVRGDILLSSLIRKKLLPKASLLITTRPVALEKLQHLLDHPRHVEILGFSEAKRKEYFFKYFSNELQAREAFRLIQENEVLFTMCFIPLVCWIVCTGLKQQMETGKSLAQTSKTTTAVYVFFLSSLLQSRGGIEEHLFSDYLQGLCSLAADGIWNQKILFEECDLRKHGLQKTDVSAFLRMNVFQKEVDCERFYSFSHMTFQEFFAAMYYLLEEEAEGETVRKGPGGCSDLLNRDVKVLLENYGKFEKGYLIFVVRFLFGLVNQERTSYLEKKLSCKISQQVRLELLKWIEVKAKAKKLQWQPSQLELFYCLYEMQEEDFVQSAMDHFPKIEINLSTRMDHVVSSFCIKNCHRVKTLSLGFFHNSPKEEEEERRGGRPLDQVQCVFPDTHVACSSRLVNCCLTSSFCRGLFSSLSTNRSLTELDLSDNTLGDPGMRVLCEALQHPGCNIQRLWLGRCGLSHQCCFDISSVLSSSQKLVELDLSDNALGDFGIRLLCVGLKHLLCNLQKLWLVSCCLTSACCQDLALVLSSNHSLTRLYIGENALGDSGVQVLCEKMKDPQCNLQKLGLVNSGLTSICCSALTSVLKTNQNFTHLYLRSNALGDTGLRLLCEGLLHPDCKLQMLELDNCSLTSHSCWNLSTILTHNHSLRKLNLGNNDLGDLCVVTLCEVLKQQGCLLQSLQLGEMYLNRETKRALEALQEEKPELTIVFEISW
OUTCOME_MEASURE: IC50 (nM)

C#CCNS(=O)(=O)c1ccc(CCN(Cc2cc(Cl)ccc2OCCC)C(=O)c2ccc([N+](=O)[O-])cc2)cc1 | 760
C#CCNS(=O)(=O)c1ccc(CCN(Cc2cc(Cl)ccc2OCCC)C(=O)Cc2ccc(F)cc2)cc1 | 280
C#CCNS(=O)(=O)c1ccc(CCN(Cc2cc(Cl)ccc2OCCC)C(=O)Cc2csc3ccccc23)cc1 | 210

[I] C#CCS(=O)(=O)c1ccc(CCN(Cc2cc(Cl)ccc2OCCC)C(=O)Cc2ccsc2)cc1
[II] C#CCNS(=O)(=O)c1ccc(CCN(Cc2cc(Cl)ccc2O)C(=O)Cc2ccsc2)cc1
[III] CCCOc1ccc(Cl)cc1CN(CCc1ccc(S(=O)(=O)N2CCC2)cc1)C(=O)Cc1ccc(F)cc1
[IV] C#CCNS(=O)(=O)c1ccc(CCN(Cc2cc(Cl)ccc2OCCC)C(=O)c2ccc(B3OC(C)(C)C(C)(C)O3)cc2)cc1
[V] C#CCNS(=O)(=O)c1ccc(CCN(Cc2cc(Cl)ccc2C(F)(F)F)C(=O)Cc2ccsc2)cc1
Sort ascending by IC50. Would you mind listing the labels in the order asked for?
I, V, II, III, IV
(I: 190 nM, V: 460 nM, II: 680 nM, III: 1350 nM, IV: 2490 nM)
